target: α2β1 integrin (Homo sapiens, UniProt P05556+P17301); construct: endogenous in cells; host or cells: gel-filtered human platelets of a single donor; assay: Platelet adhesion assay (human platelet adhesion to type I collagen); assay type: cell-based; details: human platelet adhesion to type I (soluble, monomeric) collagen, static conditions; single donor; read-out: IC50
Sequence (P17301 30-1181): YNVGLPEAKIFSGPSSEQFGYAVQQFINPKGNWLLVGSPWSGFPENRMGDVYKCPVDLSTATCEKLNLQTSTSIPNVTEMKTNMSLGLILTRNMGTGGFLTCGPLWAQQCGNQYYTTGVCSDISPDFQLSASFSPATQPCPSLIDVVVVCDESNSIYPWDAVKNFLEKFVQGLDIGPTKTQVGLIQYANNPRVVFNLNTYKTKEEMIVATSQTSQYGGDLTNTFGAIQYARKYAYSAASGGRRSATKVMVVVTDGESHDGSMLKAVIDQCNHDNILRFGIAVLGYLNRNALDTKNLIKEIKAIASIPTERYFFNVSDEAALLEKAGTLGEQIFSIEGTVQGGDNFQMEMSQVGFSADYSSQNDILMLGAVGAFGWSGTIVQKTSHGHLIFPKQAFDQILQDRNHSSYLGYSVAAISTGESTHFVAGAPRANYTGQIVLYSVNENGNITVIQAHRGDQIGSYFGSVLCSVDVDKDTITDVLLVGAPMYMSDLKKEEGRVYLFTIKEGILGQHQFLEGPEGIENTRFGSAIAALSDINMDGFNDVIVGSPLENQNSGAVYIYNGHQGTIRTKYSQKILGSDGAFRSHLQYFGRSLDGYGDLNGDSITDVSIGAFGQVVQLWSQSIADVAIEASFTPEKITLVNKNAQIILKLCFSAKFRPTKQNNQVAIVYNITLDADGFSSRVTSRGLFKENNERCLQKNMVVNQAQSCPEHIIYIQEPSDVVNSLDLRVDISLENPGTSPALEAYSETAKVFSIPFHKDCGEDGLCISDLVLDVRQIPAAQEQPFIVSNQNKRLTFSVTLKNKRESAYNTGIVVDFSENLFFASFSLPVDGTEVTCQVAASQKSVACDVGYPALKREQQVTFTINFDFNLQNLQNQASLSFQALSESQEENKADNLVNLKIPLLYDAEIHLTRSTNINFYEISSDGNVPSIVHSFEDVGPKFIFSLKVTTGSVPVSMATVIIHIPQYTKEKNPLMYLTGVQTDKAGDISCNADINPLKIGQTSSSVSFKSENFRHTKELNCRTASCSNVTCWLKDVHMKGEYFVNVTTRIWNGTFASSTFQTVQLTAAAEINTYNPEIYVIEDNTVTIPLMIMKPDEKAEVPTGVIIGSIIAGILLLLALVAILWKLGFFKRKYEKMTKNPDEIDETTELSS
Sequence (P05556 21-798): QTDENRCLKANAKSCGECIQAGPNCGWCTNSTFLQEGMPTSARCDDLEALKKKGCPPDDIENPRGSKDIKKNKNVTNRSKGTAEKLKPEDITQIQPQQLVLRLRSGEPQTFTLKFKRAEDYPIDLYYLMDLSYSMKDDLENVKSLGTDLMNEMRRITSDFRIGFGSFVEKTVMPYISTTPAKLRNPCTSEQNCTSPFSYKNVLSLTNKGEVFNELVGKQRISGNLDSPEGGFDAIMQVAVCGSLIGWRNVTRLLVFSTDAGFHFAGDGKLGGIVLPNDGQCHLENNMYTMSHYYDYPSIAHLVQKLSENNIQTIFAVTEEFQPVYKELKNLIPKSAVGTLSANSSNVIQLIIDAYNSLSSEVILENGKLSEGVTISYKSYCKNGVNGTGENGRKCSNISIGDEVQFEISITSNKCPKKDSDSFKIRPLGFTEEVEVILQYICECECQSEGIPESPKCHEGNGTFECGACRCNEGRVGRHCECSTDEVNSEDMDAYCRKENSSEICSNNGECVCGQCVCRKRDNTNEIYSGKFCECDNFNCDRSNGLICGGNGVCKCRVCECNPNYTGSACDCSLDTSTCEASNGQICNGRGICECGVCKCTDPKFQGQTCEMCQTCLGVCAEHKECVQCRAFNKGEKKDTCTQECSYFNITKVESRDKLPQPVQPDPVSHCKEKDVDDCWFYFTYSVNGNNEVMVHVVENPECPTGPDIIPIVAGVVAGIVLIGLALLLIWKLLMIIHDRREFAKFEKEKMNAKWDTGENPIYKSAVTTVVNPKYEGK
pIC50: −log10 of the molar value.
Assay Readout: pIC50

Example compounds with recorded pIC50:
• CC(C)(C)NC(=O)NC[C@H](NC(=O)[C@@H]1CCCN1S(=O)(=O)c1ccccc1)C(=O)O = 6.73
• O=C(NC[C@H](NC(=O)[C@@H]1CCCN1S(=O)(=O)c1ccc([N+](=O)[O-])cc1)C(=O)O)Nc1ccc([N+](=O)[O-])cc1 = 5.34
• O=C(NC[C@H](NC(=O)[C@@H]1CCCN1S(=O)(=O)c1ccc([N+](=O)[O-])cc1)C(=O)O)Nc1ccc(-c2ccccc2)cc1 = 5.30
• CC(=O)Nc1ccc(S(=O)(=O)N2CCC[C@H]2C(=O)N[C@@H](CNC(=O)NCc2ccccc2)C(=O)O)cc1 = 6.88
• O=C(NC[C@H](NC(=O)[C@@H]1CCCN1S(=O)(=O)c1ccc([N+](=O)[O-])cc1)C(=O)O)Nc1ccccc1 = 5.52

(A) COc1ccccc1CNC(=O)NC[C@H](NC(=O)[C@@H]1CCCN1S(=O)(=O)c1ccc([N+](=O)[O-])cc1)C(=O)O
(B) O=C(NCc1ccccc1)NC[C@H](NC(=O)[C@@H]1C[C@@H](OCc2ccccc2)CN1S(=O)(=O)c1ccccc1)C(=O)O
**Q:** I would appreciate it if you could say which entry, A or B , has the lower pIC50 value. Answer by quoting the chosen item's label.
**A:** A

(a) O=C(NCc1ccc(Br)cc1)NC[C@H](NC(=O)[C@@H]1CCCN1S(=O)(=O)c1ccc([N+](=O)[O-])cc1)C(=O)O
(b) CC(C)(C)OC(=O)CC[C@H](NC(=O)[C@@H]1CCCN1S(=O)(=O)c1ccc([N+](=O)[O-])cc1)C(=O)O
**Q:** Two entries are listed, a and b . Which one carries the higher pIC50? Field: selected label. Fill in the label of the entry you choose.
**A:** a
